Values were extracted from paper PMC5666424.

- experimental.target: CLK1 (Mus musculus)
- Sequence (P22518 whole entry): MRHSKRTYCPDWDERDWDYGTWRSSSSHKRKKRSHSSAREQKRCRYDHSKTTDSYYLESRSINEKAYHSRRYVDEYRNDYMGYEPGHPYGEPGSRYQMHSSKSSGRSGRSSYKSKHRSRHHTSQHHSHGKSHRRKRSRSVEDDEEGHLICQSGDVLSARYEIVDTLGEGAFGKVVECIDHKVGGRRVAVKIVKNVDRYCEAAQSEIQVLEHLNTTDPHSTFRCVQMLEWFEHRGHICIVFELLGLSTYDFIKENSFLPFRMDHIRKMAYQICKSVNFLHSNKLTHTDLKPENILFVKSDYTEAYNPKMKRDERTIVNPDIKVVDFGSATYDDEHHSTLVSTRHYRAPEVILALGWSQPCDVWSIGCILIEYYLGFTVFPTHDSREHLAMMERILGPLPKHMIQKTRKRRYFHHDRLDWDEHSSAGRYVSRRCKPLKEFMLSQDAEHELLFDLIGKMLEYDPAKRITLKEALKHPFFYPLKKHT
- assay.text: Protein kinase assay
- experimental.conditions: IC50 CLK1, 15 μmol/L ATP
Entries and their IC50
// units = nM; emit number, no label

Consider the worked cases shown below.
compound: COc1cc(/C=C2\N=C(N)NC2=O)ccc1O [PAC1, polyandrocarpamine A]
IC50, nM: 430

compound: CN1C(=N)N=C(Nc2nc(Cc3ccc4c(c3)OCO4)cn2C)C1=O [Clathridimine]
IC50, nM: 7200

compound: NC1=NC(=O)/C(=C2\CCNC(=O)c3[nH]cc(Br)c32)N1 [Spongiacidin B]
IC50, nM: 22

compound: COc1cc(/C=C2\N=C(N)NC2=O)ccc1O [PAC12, polyandrocarpamine A]
IC50, nM: 470

compound: NC1=NC(=O)/C(=C2\CCNC(=O)c3[nH]c(Br)cc32)N1 [Hymenialdisine, reference compound]
IC50, nM: 3

Record lookup: for CLK1 (Mus musculus), what IC50 belongs to CN1C(=O)/C(=C/c2ccc3c(c2)OCO3)N=C1N [Leucettamine B] ? 100

Record lookup: for CLK1 (Mus musculus), what IC50 belongs to COc1cc(/C=C2\N=C(N)NC2=O)ccc1O [Polyandrocarpamine A] ? 1000

Record lookup: for CLK1 (Mus musculus), what IC50 belongs to CN1C(=O)N=C(Nc2nc(Cc3ccc4c(c3)OCO4)cn2C)C1=O [Clathridine] ? 6900

====

- experimental.target: GlCLK (Giardia intestinalis)
- Sequence (A8BBY0 entry or part of it): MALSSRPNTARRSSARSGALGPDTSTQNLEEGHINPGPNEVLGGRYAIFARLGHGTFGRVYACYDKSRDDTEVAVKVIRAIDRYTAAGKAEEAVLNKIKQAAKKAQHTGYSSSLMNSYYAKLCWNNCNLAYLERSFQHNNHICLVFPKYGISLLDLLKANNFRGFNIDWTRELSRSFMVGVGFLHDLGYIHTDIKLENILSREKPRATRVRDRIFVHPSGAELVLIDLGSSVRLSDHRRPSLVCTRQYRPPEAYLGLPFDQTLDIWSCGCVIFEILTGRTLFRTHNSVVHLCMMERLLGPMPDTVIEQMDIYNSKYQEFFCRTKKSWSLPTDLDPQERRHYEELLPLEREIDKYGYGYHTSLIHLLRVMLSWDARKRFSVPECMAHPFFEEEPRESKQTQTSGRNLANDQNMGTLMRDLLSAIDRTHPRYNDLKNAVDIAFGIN
- assay.text: Protein kinase assay
- Format: biochemical
- Protocol: The parasitic kinase genes (Supplementary Data, Table S3) were optimized for expression in E. coli, synthesized, and cloned in pGEX-6P-1 (GE Healthcare, Sigma-Aldrich, St. Quentin Fallavier, France) with the type II restriction enzymes BamHI and XhoI for glutathione S-transferase (GST) fusion at the N-terminus (GenScript). Plasmids were transformed into chemically competent E. coli BL21(DE3), which were grown overnight at 37 °C in 2 × YT medium containing 100 μg/mL ampicillin. […]
readout.label: IC50 (µM)
// units = µM; emit number, no label

Can you look up the measured IC50 of CN1C(=O)/C(=C/c2ccc3c(c2)OCO3)N=C1N for me? 3.1

====

- experimental.target: CLK4 (Mus musculus)
- Sequence (O35493 whole entry): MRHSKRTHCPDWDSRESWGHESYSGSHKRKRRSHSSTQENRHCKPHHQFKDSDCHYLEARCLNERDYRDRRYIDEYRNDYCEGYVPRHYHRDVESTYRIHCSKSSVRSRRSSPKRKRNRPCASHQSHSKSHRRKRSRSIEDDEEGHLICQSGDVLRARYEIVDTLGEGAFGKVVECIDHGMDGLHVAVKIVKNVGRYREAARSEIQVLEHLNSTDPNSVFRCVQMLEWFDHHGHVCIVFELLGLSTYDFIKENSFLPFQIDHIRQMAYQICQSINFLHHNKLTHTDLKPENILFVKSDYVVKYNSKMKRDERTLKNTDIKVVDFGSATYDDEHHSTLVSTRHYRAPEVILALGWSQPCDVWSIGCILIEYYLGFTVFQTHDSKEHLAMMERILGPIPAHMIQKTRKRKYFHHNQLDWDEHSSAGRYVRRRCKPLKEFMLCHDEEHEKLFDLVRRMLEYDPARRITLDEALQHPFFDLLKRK
- assay.text: Protein kinase assay
- experimental.conditions: IC50 CLK4, 15 μmol/L ATP
readout.label: pIC50
pIC50 is a log-scale quantity: -log10 of the concentration expressed in molar.

Consider the worked cases shown below.
compound: COc1cc(/C=C2\N=C(N)NC2=O)ccc1O [PAC1, polyandrocarpamine A]
pIC50: 6.40

compound: COc1cc(/C=C2\N=C(N)NC2=O)ccc1O [PAC12, polyandrocarpamine A]
pIC50: 6.33

compound: NC1=NC(=O)/C(=C2\CCNC(=O)c3[nH]cc(Br)c32)N1
pIC50: 8.44

compound: NC1=NC(=O)/C(=C2\CCNC(=O)c3[nH]c(Br)cc32)N1 [Hymenialdisine, reference compound]
pIC50: 8.54

compound: CN1C(=O)N=C(Nc2nc(Cc3ccc4c(c3)OCO4)cn2C)C1=O
pIC50: 5.41

Can you look up the measured pIC50 of NC1=N/C(=C\c2ccc(O)c(O)c2)C(=O)N1 [PAC13, polyandrocarpamine B] for me? 6.04

====

- experimental.target: LmCK1 (Leishmania major)
- Sequence (Q9NHE1 entry or part of it): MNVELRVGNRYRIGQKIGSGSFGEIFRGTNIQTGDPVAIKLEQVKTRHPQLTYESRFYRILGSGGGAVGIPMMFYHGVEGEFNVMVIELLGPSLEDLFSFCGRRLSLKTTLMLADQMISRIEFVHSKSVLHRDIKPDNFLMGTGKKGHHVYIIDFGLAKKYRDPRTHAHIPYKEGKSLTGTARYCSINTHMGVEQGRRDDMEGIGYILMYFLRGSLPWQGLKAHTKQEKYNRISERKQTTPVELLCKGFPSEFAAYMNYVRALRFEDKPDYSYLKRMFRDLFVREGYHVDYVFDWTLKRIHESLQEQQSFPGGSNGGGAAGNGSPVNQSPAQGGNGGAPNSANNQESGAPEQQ
- assay.text: Protein kinase assay
- Format: biochemical
- experimental.conditions: 15 μmol/L ATP; read-out: IC50 LmCK1
pIC50: −log10 of the molar value.
readout.label: pIC50

molecule: COc1cc(/C=C2\N=C(N)NC2=O)ccc1O [Polyandrocarpamine A]
pIC50: < 5.00
--
molecule: CN1C(=N)N=C(Nc2nc(Cc3ccc4c(c3)OCO4)cn2C)C1=O [Clathridimine]
pIC50: < 5.00
--
molecule: COc1ccc(C=C2N=C(N)NC2=O)cc1F [PAC4]
pIC50: < 5.00

Can you look up the measured pIC50 of CN1C(=N)N(C)/C(=C\c2c[nH]c3ccccc23)C1=O [Aplysinopsine] for me? < 5.00

Can you look up the measured pIC50 of COc1cc(C=C2N=C(N)NC2=O)ccc1F [PAC5] for me? < 5.00

Can you look up the measured pIC50 of Cc1ccc(C=C2N=C(N)NC2=O)s1 [PAC10] for me? < 5.00

Can you look up the measured pIC50 of O=C1NC(Nc2ccccc2)=N/C1=C\c1ccc2c(c1)OCO2 [Leucettine L41, reference compound] for me? < 5.00

====

- experimental.target: UniProtKB Q4Q405
- Sequence (Q4Q405 entry or part of it): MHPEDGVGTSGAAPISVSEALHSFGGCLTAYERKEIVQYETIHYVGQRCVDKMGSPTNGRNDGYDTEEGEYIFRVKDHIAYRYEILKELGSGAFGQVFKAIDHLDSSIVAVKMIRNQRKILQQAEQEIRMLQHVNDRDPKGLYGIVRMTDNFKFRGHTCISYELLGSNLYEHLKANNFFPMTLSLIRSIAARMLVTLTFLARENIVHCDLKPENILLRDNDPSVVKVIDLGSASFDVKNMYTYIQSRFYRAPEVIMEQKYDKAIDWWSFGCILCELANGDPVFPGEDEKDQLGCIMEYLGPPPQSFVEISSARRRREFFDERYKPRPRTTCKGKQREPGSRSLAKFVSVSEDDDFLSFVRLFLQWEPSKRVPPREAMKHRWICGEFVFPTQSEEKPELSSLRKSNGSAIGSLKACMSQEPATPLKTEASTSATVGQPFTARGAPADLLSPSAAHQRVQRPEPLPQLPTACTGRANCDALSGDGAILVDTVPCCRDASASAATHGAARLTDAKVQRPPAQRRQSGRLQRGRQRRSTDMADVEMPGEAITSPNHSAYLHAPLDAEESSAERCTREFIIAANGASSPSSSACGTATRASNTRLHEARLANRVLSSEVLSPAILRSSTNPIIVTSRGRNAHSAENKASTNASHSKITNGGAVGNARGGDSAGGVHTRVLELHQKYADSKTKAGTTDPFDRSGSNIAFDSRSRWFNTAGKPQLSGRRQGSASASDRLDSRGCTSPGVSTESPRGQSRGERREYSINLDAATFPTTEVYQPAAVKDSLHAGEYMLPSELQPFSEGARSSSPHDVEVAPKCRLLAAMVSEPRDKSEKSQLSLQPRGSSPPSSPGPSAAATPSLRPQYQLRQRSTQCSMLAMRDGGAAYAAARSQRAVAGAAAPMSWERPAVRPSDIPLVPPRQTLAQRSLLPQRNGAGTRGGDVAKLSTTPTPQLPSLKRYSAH
- assay.text: Protein kinase assay
- Assay type: biochemical
readout.label: pIC50
pIC50 is a log-scale quantity: -log10 of the concentration expressed in molar.

Can you look up the measured pIC50 of CN1C(=O)/C(=C/c2ccc3c(c2)OCO3)N=C1N [Leucettamine B] for me? 5.38

====

- experimental.target: TbCLK1 (Trypanosoma brucei brucei, UniProt Q382U0)
- Sequence (Q382U0 entry or part of it): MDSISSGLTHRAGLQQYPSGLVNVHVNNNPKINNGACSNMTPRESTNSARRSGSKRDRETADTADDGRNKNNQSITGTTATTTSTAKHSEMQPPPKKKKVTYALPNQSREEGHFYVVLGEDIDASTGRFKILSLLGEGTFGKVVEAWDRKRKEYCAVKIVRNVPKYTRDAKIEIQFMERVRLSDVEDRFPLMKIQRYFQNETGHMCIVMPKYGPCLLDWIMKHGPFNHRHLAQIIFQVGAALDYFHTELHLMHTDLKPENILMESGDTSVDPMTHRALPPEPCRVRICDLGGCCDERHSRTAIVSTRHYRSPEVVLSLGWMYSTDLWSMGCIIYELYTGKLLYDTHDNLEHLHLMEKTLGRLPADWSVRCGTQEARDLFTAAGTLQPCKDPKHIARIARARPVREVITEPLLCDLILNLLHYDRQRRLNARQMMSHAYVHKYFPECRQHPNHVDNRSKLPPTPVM
- assay.text: Protein kinase assay
- Assay type: biochemical
- experimental.conditions: 15 μmol/L ATP; read-out: IC50 TbCLK1
pIC50: −log10 of the molar value.
readout.label: pIC50

Can you look up the measured pIC50 of NC1=N/C(=C\CCNC(=O)c2cc(Br)c(Br)[nH]2)C(=O)N1 [Dispacamide] for me? < 5.00

Can you look up the measured pIC50 of CN1C(=O)N=C(Nc2nc(Cc3ccc4c(c3)OCO4)cn2C)C1=O for me? < 5.00

Can you look up the measured pIC50 of O=C1NC(Nc2ccccc2)=N/C1=C\c1ccc2c(c1)OCO2 [Leucettine L41, reference compound] for me? < 5.00

Can you look up the measured pIC50 of CN1C(=N)N=C(Nc2nc(Cc3ccc4c(c3)OCO4)cn2C)C1=O for me? < 5.00

Can you look up the measured pIC50 of COc1cc(/C=C2\N=C(N)NC2=O)ccc1O for me? < 5.00

====

- experimental.target: CLK2 (Mus musculus, UniProt O35491)
- Sequence (O35491 whole entry): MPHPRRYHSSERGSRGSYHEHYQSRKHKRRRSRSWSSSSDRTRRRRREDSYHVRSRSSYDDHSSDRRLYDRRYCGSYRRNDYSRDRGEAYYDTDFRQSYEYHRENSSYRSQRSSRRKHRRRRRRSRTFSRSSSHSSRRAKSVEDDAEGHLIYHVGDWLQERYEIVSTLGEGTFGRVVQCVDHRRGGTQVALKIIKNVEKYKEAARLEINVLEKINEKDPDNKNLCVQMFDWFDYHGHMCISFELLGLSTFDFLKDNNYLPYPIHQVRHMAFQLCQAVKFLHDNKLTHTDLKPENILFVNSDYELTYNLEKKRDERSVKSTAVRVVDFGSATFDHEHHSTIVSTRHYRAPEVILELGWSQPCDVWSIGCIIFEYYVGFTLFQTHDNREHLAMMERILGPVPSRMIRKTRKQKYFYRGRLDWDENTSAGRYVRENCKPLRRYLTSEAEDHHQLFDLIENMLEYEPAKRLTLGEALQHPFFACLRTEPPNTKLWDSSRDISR
- assay.text: Protein kinase assay
- experimental.conditions: read-out: IC50 CLK2; 15 μmol/L ATP
pIC50: −log10 of the molar value.
readout.label: pIC50

compound: O=C1NC(Nc2ccccc2)=N/C1=C\c1ccc2c(c1)OCO2 [Leucettine L41, reference compound]
pIC50: 6.68

Record lookup: for CLK2 (Mus musculus, UniProt O35491), what pIC50 belongs to NC1=NC(=Cc2cccc(Br)c2)C(=O)N1 [PAC3] ? 5.20

Record lookup: for CLK2 (Mus musculus, UniProt O35491), what pIC50 belongs to NC1=NC(=Cc2ccc(-n3ccnc3)cc2)C(=O)N1 [PAC8] ? < 5.00

Record lookup: for CLK2 (Mus musculus, UniProt O35491), what pIC50 belongs to COc1cc(C=C2N=C(N)NC2=O)ccc1F [PAC5] ? 5.12

====

Entries and their IC50
- experimental.target: LdDYRK3 (Leishmania donovani, UniProt E9BS59)
- Sequence (E9BS59 entry or part of it): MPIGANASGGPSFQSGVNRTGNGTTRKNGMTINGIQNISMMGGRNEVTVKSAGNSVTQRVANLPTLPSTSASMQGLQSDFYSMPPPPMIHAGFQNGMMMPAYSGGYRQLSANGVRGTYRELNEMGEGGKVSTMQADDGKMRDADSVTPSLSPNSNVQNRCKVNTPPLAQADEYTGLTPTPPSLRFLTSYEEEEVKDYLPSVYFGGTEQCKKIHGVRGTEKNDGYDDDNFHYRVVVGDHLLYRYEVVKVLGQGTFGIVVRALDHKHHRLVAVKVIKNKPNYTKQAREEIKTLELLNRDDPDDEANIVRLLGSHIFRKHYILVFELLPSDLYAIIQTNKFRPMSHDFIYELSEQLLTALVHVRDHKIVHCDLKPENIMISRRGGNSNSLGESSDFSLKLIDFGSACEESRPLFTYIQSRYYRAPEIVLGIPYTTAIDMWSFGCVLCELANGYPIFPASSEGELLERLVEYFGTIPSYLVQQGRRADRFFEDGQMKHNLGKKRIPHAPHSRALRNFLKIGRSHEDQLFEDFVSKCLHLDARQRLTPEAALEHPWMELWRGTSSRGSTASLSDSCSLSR
- assay.text: Protein kinase assay
- Format: biochemical
- experimental.conditions: 15 μmol/L ATP; read-out: IC50 LdDYRK3

compound: CN1C(=N)N(C)/C(=C\c2c[nH]c3ccccc23)C1=O [Aplysinopsine]
IC50: > 10 µM
//
compound: NC1=NC(=O)/C(=C2\CCNC(=O)c3[nH]cc(Br)c32)N1 [Spongiacidin B]
IC50: 0.3 µM
//
compound: O=C1NC(Nc2ccccc2)=N/C1=C\c1ccc2c(c1)OCO2 [Leucettine L41, reference compound]
IC50: > 10 µM
//
compound: NC1=N/C(=C\CCNC(=O)c2cc(Br)c(Br)[nH]2)C(=O)N1 [Dispacamide]
IC50: > 10 µM
//
compound: COc1cc(/C=C2\N=C(N)NC2=O)ccc1O [Polyandrocarpamine A]
IC50: > 10 µM

Can you look up the measured IC50 of CN1C(=N)N=C(Nc2nc(Cc3ccc4c(c3)OCO4)cn2C)C1=O [Clathridimine] for me? 7.9 µM

Can you look up the measured IC50 of NC1=N/C(=C\c2ccc(O)c(O)c2)C(=O)N1 [Polyandrocarpamine B] for me? > 10 µM

Can you look up the measured IC50 of NC1=NC(=O)/C(=C2\CCNC(=O)c3[nH]c(Br)cc32)N1 [Hymenialdisine, reference compound] for me? 0.021 µM

Can you look up the measured IC50 of CN1C(=O)N=C(Nc2nc(Cc3ccc4c(c3)OCO4)cn2C)C1=O [Clathridine] for me? > 10 µM

====

- experimental.target: CpLAMMER (Cryptosporidium parvum, UniProt A3FQG5)
- Sequence (A3FQG5 entry or part of it): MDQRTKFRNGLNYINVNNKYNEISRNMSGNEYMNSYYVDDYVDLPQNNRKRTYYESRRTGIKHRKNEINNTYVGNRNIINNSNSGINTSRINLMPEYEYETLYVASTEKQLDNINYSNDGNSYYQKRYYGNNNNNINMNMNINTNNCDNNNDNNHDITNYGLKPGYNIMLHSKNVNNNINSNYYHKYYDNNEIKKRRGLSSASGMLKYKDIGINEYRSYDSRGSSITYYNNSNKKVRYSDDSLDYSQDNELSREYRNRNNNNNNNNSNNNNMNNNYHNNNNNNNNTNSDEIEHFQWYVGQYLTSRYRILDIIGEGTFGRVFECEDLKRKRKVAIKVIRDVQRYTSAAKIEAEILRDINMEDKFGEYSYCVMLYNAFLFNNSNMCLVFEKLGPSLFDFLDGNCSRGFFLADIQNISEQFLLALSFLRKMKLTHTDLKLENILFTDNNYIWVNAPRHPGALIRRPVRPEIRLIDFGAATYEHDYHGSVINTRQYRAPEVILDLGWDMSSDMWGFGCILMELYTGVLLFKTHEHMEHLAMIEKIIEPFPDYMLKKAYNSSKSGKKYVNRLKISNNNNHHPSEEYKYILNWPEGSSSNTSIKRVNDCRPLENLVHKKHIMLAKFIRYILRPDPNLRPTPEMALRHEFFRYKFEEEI
- assay.text: Protein kinase assay
- Type: biochemical
readout.label: pIC50
pIC50 is a log-scale quantity: -log10 of the concentration expressed in molar.

Can you look up the measured pIC50 of CN1C(=O)/C(=C/c2ccc3c(c2)OCO3)N=C1N for me? 5.74
